Listed below: normalized growth values for each entry.
- Protocol text: chemical genetic growth profiling, strain panel (AID 1159580);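 also: tested at 20 µM; growth read once vehicle control cultures reached saturation at 30 °C; 1 = growth at the plate median or of vehicle wells; lower values mean less growth of the strain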
- Condition info: S. cerevisiae deletion strains, growth OD, locus YBR023C, strain chs3, hits give low values
Screen size: about 5,500 compounds; about 2,000 (36%) were called active. Inconclusive results (about 18%) are left out. Some of the results follow.
Property measured: normalized growth

>  <Molecule>
O=c1cc(-c2ccccc2)oc2cc(O)c(O)c(O)c12

>  <Obs value>
0.279

$$$$
>  <Molecule>
CCN(CC)C(C)CN1c2ccccc2Sc2ccccc21 (stereo not drawn)

>  <Obs value>
0.889

$$$$
>  <Molecule>
CSc1ccc2c(c1)N(CCC1CCCCN1C)c1ccccc1S2 (stereo not drawn)

>  <Obs value>
0.923

$$$$
>  <Molecule>
CC(CN1c2ccccc2Sc2ccccc21)N(C)C (stereo not drawn)

>  <Obs value>
0.927

$$$$
>  <Molecule>
CC(CN(C)C)CN1c2ccccc2CCc2ccccc21 (stereo not drawn)

>  <Obs value>
0.975

$$$$
>  <Molecule>
Nc1cc(C(Cl)=C(Cl)Cl)c(S(N)(=O)=O)cc1S(N)(=O)=O

>  <Obs value>
0.999

$$$$
>  <Molecule>
CN(C)N=Nc1nc[nH]c1C(N)=O

>  <Obs value>
0.982

$$$$
>  <Molecule>
O=c1[nH]cnc2[nH]ncc12

>  <Obs value>
1

$$$$
>  <Molecule>
N#C/C(=C\c1cccc(O)c1)C(=O)O

>  <Obs value>
0.979

$$$$
>  <Molecule>
CC12CC3CC(C)(C1)CC(N)(C3)C2

>  <Obs value>
0.985

$$$$
>  <Molecule>
CCCCCC1C(=O)CCC1CC(=O)O (stereo not drawn)

>  <Obs value>
0.99

$$$$
>  <Molecule>
COc1c2ccccc2nc2occc12

>  <Obs value>
0.926

$$$$
>  <Molecule>
C/C=C/C(=O)N(CC)c1ccccc1C

>  <Obs value>
1.01

$$$$
